# method_summary: qHTS Assay for Lipid Storage Modulators in Drosophila S3 Cells
# cond: BODIPY lipid droplet fluorescence, 18-24 h, cells fed with added oleic acid; series mostly up to 46.1 µM
Screen size: about 320,000 compounds; about 2,100 (0.66%) were called active. Not shown: some 53% with an inconclusive outcome. The call rests on the fitted dose curve; in most records, active means well fitted inhibition curve with a large enough effect in the signal ratio, with a control signal flat (not every such curve was filed as active); inconclusive means small, poorly fitted or top-dose-only effect, or effect the other way, or a change in a side signal; inactive means flat fitted curve, though single readings scatter; the % refers to the signal ratio. Only a selection was taken, and actives are over-represented in it overall.
Select the correct class. Options are yes (1) for active, no (0) for inactive and nothing else.

# molecule, category_label
records = [
    ("O=C(CCCC(=O)OCC(F)(F)C(F)F)Nc1ccc(NC(=O)CCCC(=O)OCC(F)(F)C(F)F)cc1", "no (0)"),
]

Kindly provide the recorded test outcome for the following molecule: O=C(O)CSc1nnnn1C1CCCCC1
no (0)

Kindly provide the recorded test outcome for the following molecule: Cc1cccc(NC(=O)CSc2nc3[nH]ncc3c(=O)[nH]2)c1C
no (0)

Kindly provide the recorded test outcome for the following molecule: O=C1O/C(=C\C(=O)N2CCOCC2)c2ccccc21
no (0)

Kindly provide the recorded test outcome for the following molecule: Cc1ccc(Cl)cc1NC(=S)N(CCN(C)C)C(C)c1ccccn1 (stereo not drawn)
no (0)

Kindly provide the recorded test outcome for the following molecule: CCn1c(SCC(=O)N2CCCC2)nc2ccccc2c1=O
no (0)
